Test system: Staphylococcus aureus
assay-notes: Antibacterial activity against methicillin-resistant Staphylococcus aureus incubated for 16 hrs by agar dilution method
Type: functional
quantity-kind: MIC (µg/mL)
Response body: numeric value in µg/mL, unit text excluded.

Sample records with MIC:
>  <molecule>
CC(=S)NC[C@@H]1OC(=O)N2c3ccc(-c4ccc(F)nc4)cc3SC[C@@H]12

>  <MIC (µg/mL)>
2

$$$$
>  <molecule>
CC(=O)NC[C@@H]1OC(=O)N2c3ccc(-c4ccc(N5CCOC5=O)nc4)cc3SC[C@@H]12

>  <MIC (µg/mL)>
2

$$$$
>  <molecule>
CC(=O)NC[C@@H]1OC(=O)N2c3ccc(-c4ccc(C#N)nc4)cc3SC[C@@H]12

>  <MIC (µg/mL)>
4

$$$$

Quote MIC with test system Staphylococcus aureus for CC(=O)NC[C@@H]1OC(=O)N2c3ccc(-c4ccc(F)nc4)cc3SC[C@@H]12
2

Quote MIC with test system Staphylococcus aureus for CC(=S)NC[C@@H]1OC(=O)N2c3ccc(-c4ccc(C#N)nc4)cc3SC[C@@H]12
4

Quote MIC with test system Staphylococcus aureus for CC(=O)NC[C@@H]1OC(=O)N2c3ccc(-c4ccc(C5CN(C)C(=O)O5)nc4)cc3SC[C@@H]12 (single isomer, unassigned)
2

Quote MIC with test system Staphylococcus aureus for CC(=O)NC[C@@H]1OC(=O)N2c3ccc(-c4ccc(C(C)=O)nc4)cc3SC[C@@H]12
2

Quote MIC with test system Staphylococcus aureus for COc1ccc(-c2ccc3c(c2)SC[C@H]2[C@H](CNC(C)=O)OC(=O)N32)cn1
4

Quote MIC with test system Staphylococcus aureus for CC(=S)NC[C@@H]1OC(=O)N2c3ccc(-c4ccc(N5CCOC5=O)nc4)cc3SC[C@@H]12
1

Quote MIC with test system Staphylococcus aureus for CC(=O)NC[C@H]1CN(c2ccc(N3CCOCC3)c(F)c2)C(=O)O1 [LINEZOLID]
1

Quote MIC with test system Staphylococcus aureus for CN1C[C@H](c2ccc(-c3ccc4c(c3)OC[C@H]3[C@H](CO)OC(=O)N43)cn2)OC1=O
0.5

Quote MIC with test system Staphylococcus aureus for COc1ccc(-c2ccc3c(c2)SC[C@H]2[C@H](CNC(C)=S)OC(=O)N32)cn1
4

Quote MIC with test system Staphylococcus aureus for CC(=O)NC[C@@H]1OC(=O)N2c3ccc(-c4ccc(C5(C#N)CC5)nc4)cc3SC[C@@H]12
2

----------
Tested on: Staphylococcus epidermidis
assay-notes: Antibacterial activity against methicillin-resistant Staphylococcus epidermidis incubated for 16 hrs by agar dilution method
Format: functional
quantity-kind: MIC (µg/mL)
Response body: numeric value in µg/mL, unit text excluded.

Specify measured MIC for CC(=O)NC[C@@H]1OC(=O)N2c3ccc(-c4ccc(C5(C#N)CC5)nc4)cc3SC[C@@H]12 .
2

Specify measured MIC for CC(=O)NC[C@@H]1OC(=O)N2c3ccc(-c4ccc(F)nc4)cc3SC[C@@H]12 .
2

Specify measured MIC for COc1ccc(-c2ccc3c(c2)SC[C@H]2[C@H](CNC(C)=O)OC(=O)N32)cn1 .
4

----------
System: Staphylococcus epidermidis
assay-notes: Antibacterial activity against methicillin-resistant Staphylococcus epidermidis incubated for 16 hrs by agar dilution method
Type: functional
quantity-kind: MIC (µg/mL)
Response body: numeric value in µg/mL, unit text excluded.

Quote MIC with test system Staphylococcus epidermidis for COc1ccc(-c2ccc3c(c2)SC[C@H]2[C@H](CNC(C)=S)OC(=O)N32)cn1
4

Quote MIC with test system Staphylococcus epidermidis for CN1C[C@H](c2ccc(-c3ccc4c(c3)OC[C@H]3[C@H](CO)OC(=O)N43)cn2)OC1=O
0.25

Quote MIC with test system Staphylococcus epidermidis for CC(=O)NC[C@H]1CN(c2ccc(N3CCOCC3)c(F)c2)C(=O)O1 [LINEZOLID]
2

Quote MIC with test system Staphylococcus epidermidis for CC(=S)NC[C@@H]1OC(=O)N2c3ccc(-c4ccc(F)nc4)cc3SC[C@@H]12
1

Quote MIC with test system Staphylococcus epidermidis for CC(=O)NC[C@@H]1OC(=O)N2c3ccc(-c4ccc(C5CN(C)C(=O)O5)nc4)cc3SC[C@@H]12 (single isomer, unassigned)
2

Quote MIC with test system Staphylococcus epidermidis for CC(=O)NC[C@@H]1OC(=O)N2c3ccc(-c4ccc(C(C)=O)nc4)cc3SC[C@@H]12
2
